Values compiled from PubChem BioAssay (NCI).

Catalogue of compounds with associated growth
tested on: EKVX NSCLC; assay: NCI-60 one-dose screen, 48 h (100 = growth as untreated, 0 = no growth, -100 = all killed); details: 10 µM unless noted
This is part of a sample that, as a whole, favours compounds with a hit. Of some 83,000 tested, about 20% had one in any assay.
Record the value in %, omitting the unit from your answer.

The examples below pair each entry with its known result.
INSERT INTO assay_data (compound, unit_symbol, experimental_value) VALUES
  ('COc1ccc(-n2c(SCc3n[nH]c(=S)o3)nc3ccc(Cl)cc3c2=O)cc1', '%', 98.7),
  ('CCNC(=O)N1CCc2cc(OC)c(OCCc3ccc(OC)cc3)cc2C1c1ccc(Cl)cc1C (configuration not stated)', '%', 37);

Field request: growth | item: COc1ccc(CCN2C(=O)CSC2=S)cc1
96

Field request: growth | item: C=C(C=O)[C@@H]1CC[C@]2(C)[C@H](CC=C3[C@H]4[C@@H](C)[C@H](C)CC[C@]4(C(=O)OC)CC[C@]32C)[C@@]1(C)CCC#N
15.2

Field request: growth | item: CCOC(=O)c1c(Nc2ccccc2)nn2c(-c3cccs3)ccnc12
88.8

Field request: growth | item: Cc1ccc(NC(=S)NNC(=S)Nc2ccc(C)cc2)cc1
94.5

Field request: growth | item: O=C1CCCc2nc(Nc3ccc(S(=O)(=O)Nc4ccc([N+](=O)[O-])cc4)cc3)ncc21
100
